molecular target: DAPK1 (human) (UniProt P53355); assay: radiometric filter-binding kinase assay, Kinase HotSpot; settings: compound 0.5 µM; ATP 10 µM
Sequence (P53355 whole entry, looked up): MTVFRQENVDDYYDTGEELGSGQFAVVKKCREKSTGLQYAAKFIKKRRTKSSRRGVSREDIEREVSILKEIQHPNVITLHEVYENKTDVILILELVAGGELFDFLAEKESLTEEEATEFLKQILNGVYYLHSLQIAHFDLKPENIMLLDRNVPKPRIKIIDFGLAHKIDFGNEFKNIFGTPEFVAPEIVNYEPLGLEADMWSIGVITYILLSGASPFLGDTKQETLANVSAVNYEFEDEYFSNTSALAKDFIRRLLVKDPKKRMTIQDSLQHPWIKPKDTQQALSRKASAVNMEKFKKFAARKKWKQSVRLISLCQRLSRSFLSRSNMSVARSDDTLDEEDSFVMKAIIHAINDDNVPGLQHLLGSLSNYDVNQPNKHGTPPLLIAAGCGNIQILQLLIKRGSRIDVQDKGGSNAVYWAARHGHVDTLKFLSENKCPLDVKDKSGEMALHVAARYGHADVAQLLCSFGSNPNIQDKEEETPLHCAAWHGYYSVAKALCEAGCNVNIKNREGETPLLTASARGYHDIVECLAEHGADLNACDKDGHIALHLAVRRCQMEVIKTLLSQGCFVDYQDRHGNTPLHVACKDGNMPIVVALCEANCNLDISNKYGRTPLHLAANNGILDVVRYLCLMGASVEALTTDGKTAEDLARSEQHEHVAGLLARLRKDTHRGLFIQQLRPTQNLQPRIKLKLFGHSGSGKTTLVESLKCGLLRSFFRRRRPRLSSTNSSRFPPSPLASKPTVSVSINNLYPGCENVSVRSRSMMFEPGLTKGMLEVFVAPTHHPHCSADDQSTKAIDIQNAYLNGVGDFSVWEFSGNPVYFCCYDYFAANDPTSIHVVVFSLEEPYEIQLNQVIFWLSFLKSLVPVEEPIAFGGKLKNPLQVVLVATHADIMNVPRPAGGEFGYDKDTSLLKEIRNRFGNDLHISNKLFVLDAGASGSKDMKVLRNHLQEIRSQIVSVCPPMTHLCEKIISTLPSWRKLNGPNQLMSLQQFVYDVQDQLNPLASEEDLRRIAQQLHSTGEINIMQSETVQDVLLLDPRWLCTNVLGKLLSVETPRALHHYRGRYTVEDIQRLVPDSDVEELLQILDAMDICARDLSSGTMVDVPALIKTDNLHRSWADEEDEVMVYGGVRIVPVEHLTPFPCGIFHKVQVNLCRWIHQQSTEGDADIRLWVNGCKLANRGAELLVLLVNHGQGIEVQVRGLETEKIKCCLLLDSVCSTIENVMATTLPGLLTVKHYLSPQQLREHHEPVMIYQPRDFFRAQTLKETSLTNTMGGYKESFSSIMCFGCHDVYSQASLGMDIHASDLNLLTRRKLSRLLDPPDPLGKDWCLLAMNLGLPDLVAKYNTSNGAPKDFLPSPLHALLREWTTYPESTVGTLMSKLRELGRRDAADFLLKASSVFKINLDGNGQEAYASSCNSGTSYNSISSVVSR
endpoint: residual activity
Quick note: unit goes after the number.

Request: Given the entry `Cc1nc2cc3nc(-c4cccs4)cnc3cc2n1C` , report its measured residual activity.
Response: 99.5%

Request: `O=C1NC(=O)C(c2cn(CCCO)c3ncccc23)=C1c1cnccn1` ?
Response: 74.4%

Request: `CC(C)c1nn(-c2c(Cl)cccc2Cl)c2nc(Cc3ccc(OCCO)cc3)nc(O)c12`
Response: 99.5%

Request: One more molecule: `Cn1sc(=O)n(Cc2ccccc2)c1=O`
Response: 97.9%

Request: Now the molecule `CN(C)C[C@H]1CCn2c(c(C3=C(c4cn(C)c5ccccc45)C(=O)NC3=O)c3ccccc32)C1`
Response: 94.1%

Request: Entry to check: `CCN(CC)CCCCN1c2ccccc2Oc2ccc(Cl)cc21`
Response: 76.6%

Request: Try the molecule `Cn1cnc2cc3c(Nc4cccc(Br)c4)ncnc3cc21`
Response: 87.2%

Request: Also, `COc1cc2ncc(-c3ccccc3)nc2cc1OC` please.
Response: 99.7%

###

The compounds listed here are annotated with their residual activity.
biological target: EPHA8 (human) (UniProt P29322); assay: radiometric filter-binding kinase assay, Kinase HotSpot; settings: compound 0.5 µM; ATP 10 µM
Sequence (P29322 whole entry, looked up): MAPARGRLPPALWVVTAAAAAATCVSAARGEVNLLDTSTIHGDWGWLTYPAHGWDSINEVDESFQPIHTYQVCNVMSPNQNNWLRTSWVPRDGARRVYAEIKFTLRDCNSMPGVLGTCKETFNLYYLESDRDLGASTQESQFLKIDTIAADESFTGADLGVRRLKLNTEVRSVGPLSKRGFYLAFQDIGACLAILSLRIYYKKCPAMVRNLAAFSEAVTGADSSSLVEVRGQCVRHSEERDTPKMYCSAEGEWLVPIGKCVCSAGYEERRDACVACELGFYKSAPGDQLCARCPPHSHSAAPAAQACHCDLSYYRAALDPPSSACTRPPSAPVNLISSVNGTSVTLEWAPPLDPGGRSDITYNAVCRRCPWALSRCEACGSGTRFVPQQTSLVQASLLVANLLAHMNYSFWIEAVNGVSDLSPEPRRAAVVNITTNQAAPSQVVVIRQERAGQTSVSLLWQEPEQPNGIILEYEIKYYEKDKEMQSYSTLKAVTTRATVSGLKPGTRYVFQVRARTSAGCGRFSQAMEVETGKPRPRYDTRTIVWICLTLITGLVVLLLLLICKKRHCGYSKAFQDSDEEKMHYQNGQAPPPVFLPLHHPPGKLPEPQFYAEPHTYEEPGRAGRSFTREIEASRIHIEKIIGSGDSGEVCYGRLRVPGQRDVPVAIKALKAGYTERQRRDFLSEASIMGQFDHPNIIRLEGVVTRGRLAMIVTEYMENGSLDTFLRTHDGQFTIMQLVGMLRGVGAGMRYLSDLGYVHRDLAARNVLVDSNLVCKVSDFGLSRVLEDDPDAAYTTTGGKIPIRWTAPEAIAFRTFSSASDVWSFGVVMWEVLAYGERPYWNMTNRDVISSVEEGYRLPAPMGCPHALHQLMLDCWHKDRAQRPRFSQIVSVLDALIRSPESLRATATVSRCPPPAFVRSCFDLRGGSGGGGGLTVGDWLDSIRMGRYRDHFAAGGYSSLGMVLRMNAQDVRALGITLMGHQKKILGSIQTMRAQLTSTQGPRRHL
Give just the numeric value; % need not be written.

// below: answered compounds
compound	units_of_measure	numeric_result
O=C1NC(=O)C(c2c[nH]c3ccccc23)=C1c1c[nH]c2ccccc12	%	103
O=C(Nc1cccc(Nc2cc(Nc3cccc(C(F)(F)F)c3)ncn2)c1)C1CC1	%	103
Cc1nc2cc3nc(-c4cccs4)cnc3cc2n1C	%	100
COc1cc2ncnc(N3CCN(C(=O)Nc4ccc(Oc5ccccc5)cc4)CC3)c2cc1OC	%	92.5
CC(C)c1nn(-c2c(Cl)cccc2Cl)c2nc(Cc3ccc(OCCO)cc3)nc(O)c12	%	102
Cn1sc(=O)n(Cc2ccccc2)c1=O	%	94.4

Request: So what does the record say about residual activity for `O=C(CCCc1ccc(-c2ccccc2F)cc1)Nc1ccc(O)cc1` ?
Response: 114

Request: Now consider `CC(C)[C@H](CO)Nc1nc(Nc2cc(N)cc(Cl)c2)c2ncn(C(C)C)c2n1` and answer again.
Response: 92.5

Request: How about this compound: O=C1Nc2ccccc2/C1=C1/Nc2ccccc2/C1=N\OCCC(O)CO (stereo unspecified)
Response: 91.9

Request: Same question, `Oc1ccc(Nc2nc(-c3ccc(Cl)cc3)cs2)cc1` this time
Response: 93.4

Request: Same read-out for `Nc1nnc2[nH]c3ccccc3nc1-2` ?
Response: 104

Request: Another compound to check: `COc1ccc(CNC(=O)Nc2ncc([N+](=O)[O-])s2)cc1`
Response: 109

Request: Next entry: `O=C(O)/C=C/c1cc(Br)c(Br)c(Br)c1Br`
Response: 99.1

Request: Entry `O=C1Cc2c([nH]c3ccc(Br)cc23)-c2ccccc2N1` please
Response: 101

Request: `O=C1NC(=O)C(c2cn(CCCO)c3ncccc23)=C1c1cnccn1` , same question.
Response: 86.9

###

Entries and their measured residual activity follow.
biological target: HCK (human) (UniProt P08631); assay: radiometric filter-binding kinase assay, Kinase HotSpot; conditions: compound 0.5 µM; ATP 10 µM
Sequence (P08631 whole entry, looked up): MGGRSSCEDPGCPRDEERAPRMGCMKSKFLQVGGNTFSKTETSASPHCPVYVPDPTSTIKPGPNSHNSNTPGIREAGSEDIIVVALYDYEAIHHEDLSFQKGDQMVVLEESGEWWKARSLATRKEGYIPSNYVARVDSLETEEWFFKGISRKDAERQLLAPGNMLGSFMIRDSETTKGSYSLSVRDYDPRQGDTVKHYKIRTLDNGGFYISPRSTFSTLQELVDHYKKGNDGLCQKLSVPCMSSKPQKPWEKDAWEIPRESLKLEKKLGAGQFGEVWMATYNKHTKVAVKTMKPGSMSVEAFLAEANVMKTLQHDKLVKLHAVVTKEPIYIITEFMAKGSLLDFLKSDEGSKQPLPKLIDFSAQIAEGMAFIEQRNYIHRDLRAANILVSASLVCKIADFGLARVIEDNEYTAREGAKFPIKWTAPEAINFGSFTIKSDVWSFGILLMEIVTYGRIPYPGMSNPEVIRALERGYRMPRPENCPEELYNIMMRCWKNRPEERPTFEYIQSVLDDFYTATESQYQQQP
Use % as the unit, but write only the number.

Examples from the recorded data:
compound	units_of_measure	numeric_result
Cc1nc2cc3nc(-c4cccs4)cnc3cc2n1C	%	98
O=C1Nc2ccccc2/C1=C1/Nc2ccccc2/C1=N\OCCC(O)CO (stereo not drawn)	%	23
COc1cc2ncc(-c3ccccc3)nc2cc1OC	%	96.9

Request: Which residual activity is listed for `CC(C)[C@H](CO)Nc1nc(Nc2cc(N)cc(Cl)c2)c2ncn(C(C)C)c2n1` ?
Response: 27.3

Request: // repeat for `CC(=O)O/N=C1\C(=C2\C(=O)Nc3cc(Br)ccc32)Nc2ccccc21` and report
Response: 43.1

Request: Ok, now `O=C1NC(=O)/C(=C\c2ccc3nccnc3c2)S1`
Response: 92.2

Request: Please do the same for `Nc1nccc(-c2c(-c3ccc(F)cc3)ncn2C2CCNCC2)n1` as well.
Response: 95.5

Request: `O=C(O)/C=C/c1cc(Br)c(Br)c(Br)c1Br`
Response: 99.9
